Source: patent US7816408B2

Target: human calcium receptor (Homo sapiens, UniProt P41180)
Sequence (P41180 20-1078): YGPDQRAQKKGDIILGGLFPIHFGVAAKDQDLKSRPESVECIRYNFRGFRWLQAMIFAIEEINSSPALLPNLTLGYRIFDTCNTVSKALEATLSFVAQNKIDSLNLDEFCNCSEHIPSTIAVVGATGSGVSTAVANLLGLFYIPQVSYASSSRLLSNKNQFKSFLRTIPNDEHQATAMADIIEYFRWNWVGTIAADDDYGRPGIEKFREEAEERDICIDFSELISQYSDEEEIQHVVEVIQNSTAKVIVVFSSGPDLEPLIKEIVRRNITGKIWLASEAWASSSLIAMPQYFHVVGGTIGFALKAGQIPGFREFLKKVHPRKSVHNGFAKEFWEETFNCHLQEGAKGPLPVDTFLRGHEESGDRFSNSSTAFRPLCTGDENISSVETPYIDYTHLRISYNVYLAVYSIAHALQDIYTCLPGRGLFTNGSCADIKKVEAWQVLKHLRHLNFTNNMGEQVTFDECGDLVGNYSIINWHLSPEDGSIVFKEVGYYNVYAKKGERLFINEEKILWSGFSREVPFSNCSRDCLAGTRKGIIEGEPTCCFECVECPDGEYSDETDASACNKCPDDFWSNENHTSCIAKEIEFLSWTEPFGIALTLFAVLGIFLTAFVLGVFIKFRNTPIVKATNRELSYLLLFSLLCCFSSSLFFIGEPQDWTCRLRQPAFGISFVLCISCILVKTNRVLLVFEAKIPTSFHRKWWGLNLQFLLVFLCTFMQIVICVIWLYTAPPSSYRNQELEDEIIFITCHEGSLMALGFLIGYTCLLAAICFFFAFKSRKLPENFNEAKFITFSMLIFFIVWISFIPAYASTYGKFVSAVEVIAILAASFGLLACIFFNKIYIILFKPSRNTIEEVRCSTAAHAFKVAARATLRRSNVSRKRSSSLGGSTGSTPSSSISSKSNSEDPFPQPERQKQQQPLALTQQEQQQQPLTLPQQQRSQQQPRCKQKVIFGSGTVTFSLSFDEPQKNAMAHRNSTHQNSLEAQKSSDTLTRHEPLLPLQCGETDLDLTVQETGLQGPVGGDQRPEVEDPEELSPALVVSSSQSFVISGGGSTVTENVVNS
Test: Activity on calcium receptors: fluo-3 fluorescence in HEK293 cells transfected with human calcium receptor gene
Settings: HEK293 cells transfected with plasmid pHuPCaR4.0 (human calcium receptor gene), loaded with fluo-3; 1 mM CaCl2, 1 mM MgCl2
The label true (1) is reserved for EC50 strictly under 300 nM; false (0) covers values equal to or above it.

Worked examples, 2 molecules total:
molecule | category
C[C@@H](NCCC(=O)N(Cc1ccc(C(F)(F)F)cc1)Cc1ccc(C(F)(F)F)cc1)c1cccc2ccccc12 [Compound K-2259] | true (1)
C[C@@H](NCCCCCCCCCCCCSc1c(F)c(F)c(C(F)(F)F)c(F)c1F)c1cccc2ccccc12 [Compound S-201] | true (1)

// switching to the query molecule
input: Check if EC50 falls below 300 nM for COc1cccc([C@@H](C)NCCCCCCCOc2ccc(Br)cc2)c1 [Compound K-2007] .
output: false (0)
